Target: human PR (Homo sapiens, UniProt P06401)
Sequence (P06401 whole entry): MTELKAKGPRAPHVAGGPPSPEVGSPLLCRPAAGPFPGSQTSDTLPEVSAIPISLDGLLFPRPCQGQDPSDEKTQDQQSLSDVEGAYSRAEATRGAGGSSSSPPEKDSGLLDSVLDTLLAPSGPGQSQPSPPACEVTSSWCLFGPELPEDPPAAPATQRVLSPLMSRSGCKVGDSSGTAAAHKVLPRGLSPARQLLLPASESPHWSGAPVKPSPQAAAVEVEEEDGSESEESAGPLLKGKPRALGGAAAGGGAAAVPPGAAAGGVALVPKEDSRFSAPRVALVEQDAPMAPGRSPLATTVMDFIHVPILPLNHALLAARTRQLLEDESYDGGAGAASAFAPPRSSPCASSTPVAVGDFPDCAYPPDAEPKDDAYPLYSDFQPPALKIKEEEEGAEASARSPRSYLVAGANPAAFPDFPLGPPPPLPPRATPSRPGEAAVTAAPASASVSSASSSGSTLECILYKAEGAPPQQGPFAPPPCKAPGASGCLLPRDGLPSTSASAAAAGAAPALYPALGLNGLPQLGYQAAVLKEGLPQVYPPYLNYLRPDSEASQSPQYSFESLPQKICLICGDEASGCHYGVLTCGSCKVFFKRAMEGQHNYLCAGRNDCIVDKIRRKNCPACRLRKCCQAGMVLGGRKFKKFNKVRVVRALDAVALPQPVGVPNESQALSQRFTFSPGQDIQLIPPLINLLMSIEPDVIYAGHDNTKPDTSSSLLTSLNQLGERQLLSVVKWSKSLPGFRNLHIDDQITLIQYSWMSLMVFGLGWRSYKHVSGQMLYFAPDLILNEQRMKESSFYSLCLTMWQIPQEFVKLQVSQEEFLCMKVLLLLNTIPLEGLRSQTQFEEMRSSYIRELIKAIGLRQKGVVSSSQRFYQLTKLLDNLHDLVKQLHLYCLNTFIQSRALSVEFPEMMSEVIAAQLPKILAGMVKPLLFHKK
Experiment: PR agonist yeast lacZ reporter gene assay
Conditions: EC50, agonist assay; strain cwp1Δpdr5Δ
readout label: EC50 (µM)
Give the quantity in µM, number only.

Test item C[C@]12CC[C@H]3[C@@H](CCC4=CC(=O)CC[C@@]43C)[C@@H]1CC[C@@H]2O [TS, Testosterone] ; human PR (Homo sapiens, UniProt P06401); reported EC50 was 31

Test item C[C@]12CCC(=O)C=C1CC[C@@H]1[C@@H]2[C@@H](O)C[C@]2(C=O)[C@@H](C(=O)CO)CC[C@@H]12 [AS, aldosterone] ; human PR (Homo sapiens, UniProt P06401); reported EC50 was 9.7

Test item C[C@]12C[C@H](O)[C@H]3[C@@H](CCC4=CC(=O)CC[C@@]43C)[C@@H]1CC[C@@H]2C(=O)CO [CS, corticosterone] ; human PR (Homo sapiens, UniProt P06401); reported EC50 was 18.3

Test item C#C[C@]1(O)C=C[C@H]2[C@@H]3CCC4=CC(=O)CC[C@@H]4[C@H]3CC[C@@]21CC [GTD, gestodene] ; human PR (Homo sapiens, UniProt P06401); reported EC50 was 0.000996

Test item C[C@]12CCC3=C4CCC(=O)C=C4CC[C@H]3[C@@H]1CC[C@@]2(O)CC#N [DNG, Dienogest] ; human PR (Homo sapiens, UniProt P06401); reported EC50 was 0.86
